Biological target: PD-1/PD-L1 (Homo sapiens (Human), UniProt Q9NZQ7)
Sequence (Q9NZQ7 19-238): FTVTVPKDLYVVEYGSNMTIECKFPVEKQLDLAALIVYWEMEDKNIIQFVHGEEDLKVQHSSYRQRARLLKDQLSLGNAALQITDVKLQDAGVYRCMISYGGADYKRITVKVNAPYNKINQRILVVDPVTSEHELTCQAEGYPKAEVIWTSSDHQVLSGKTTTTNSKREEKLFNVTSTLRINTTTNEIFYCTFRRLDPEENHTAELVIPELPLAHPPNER
Experiment: PD-1/PD-L1 biochemical protein-protein interaction assay (ALPHA)
Conditions: 0.3 nM His tagged PD-L1, 2.5 nM biotinylated Fc-PD-1, 60 minutes at 25° C., read-out: IC50 PD-L1-PD1

>  <SMILES_CODE>
COc1nc(-c2cccc(-c3cccc(-c4cnc5c(CN6CC7(C6)CN(C(C)=O)C7)cn(C)c5n4)c3Cl)c2Cl)cnc1CN1CC2(C1)CN(C(C)=O)C2

>  <TESTED_ON>
PD-1/PD-L1 (Homo sapiens (Human), UniProt Q9NZQ7)

>  <IC50, nM>
0.064

$$$$
>  <SMILES_CODE>
CCNc1nc(-c2cccc(-c3cccc(-c4cnc(CN5CC(O)C5)c(NCC)n4)c3Cl)c2Cl)cnc1CN1CC(O)C1

>  <TESTED_ON>
PD-1/PD-L1 (Homo sapiens (Human), UniProt Q9NZQ7)

>  <IC50, nM>
0.61

$$$$
>  <SMILES_CODE>
COc1nc(-c2cccc(-c3cccc(-c4cnc(CNC[C@@H]5CCC(=O)N5)c(OC)n4)c3Cl)c2Cl)cnc1CNCC(N)=O

>  <TESTED_ON>
PD-1/PD-L1 (Homo sapiens (Human), UniProt Q9NZQ7)

>  <IC50, nM>
0.089

$$$$
>  <SMILES_CODE>
COc1nc(-c2cccc(-c3cccc(-c4cnc(CN5CC6(C5)CN(C(C)=O)C6)c(OC)n4)c3Cl)c2Cl)cnc1CN1CC(C)(O)C1

>  <TESTED_ON>
PD-1/PD-L1 (Homo sapiens (Human), UniProt Q9NZQ7)

>  <IC50, nM>
0.064

$$$$
>  <SMILES_CODE>
COc1nc(-c2cccc(-c3cccc(-c4cnc(C5=NC[C@@H](C)N5)c(OC)n4)c3Cl)c2Cl)ccc1CNC[C@@H]1CCC(=O)N1

>  <TESTED_ON>
PD-1/PD-L1 (Homo sapiens (Human), UniProt Q9NZQ7)

>  <IC50, nM>
0.093

$$$$
>  <SMILES_CODE>
COc1nc(-c2cccc(-c3cccc(-c4cnc(CNC[C@@H]5CCC(=O)N5C)c(OC)n4)c3Cl)c2Cl)cnc1CNC[C@@H]1CCC(=O)N1

>  <TESTED_ON>
PD-1/PD-L1 (Homo sapiens (Human), UniProt Q9NZQ7)

>  <IC50, nM>
0.256

$$$$

// provenance: patent US10710986B2
